- subject.of.test: Hexose transporter 1 (Plasmodium falciparum) (UniProt O97467)
- assay.procedure: ST_JUDE_LEISH: Cytotoxicity at 2uM final concentration against transgenic Leishmania Mexicana promastigotes LmPfHT that are glucose transport deficient and complemented with the Plasmodium falciparum hexose transporter. Activity is measured by DNA content using SYBR green in vitro
- Type: functional
Parameter inhibition: see the listing below.
measure: inhibition (%)

>  <compound.structure.string>
CN1CCC[C@@H](Oc2cc3c(cc2Br)CCN3C(=O)Nc2ccc(-c3ccncc3)c(Cl)c2)C1

>  <measure>
inhibition

>  <number>
2.77

$$$$
>  <compound.structure.string>
O=C(/C=C/c1ccc(Cl)c(Cl)c1)NCC[C@@H]1C[C@H]1CCN1CCC(c2c[nH]c3ccccc23)CC1

>  <measure>
inhibition

>  <number>
8.4

$$$$
>  <compound.structure.string>
CCCCCCCn1c2c(c(=N)c3c1CCC3)CCCC2

>  <measure>
inhibition

>  <number>
90.8

$$$$
>  <compound.structure.string>
COc1cc(NC(=O)c2cc3c(C)nn(-c4cccc(C(F)(F)F)c4)c3s2)cc(OC)c1OC

>  <measure>
inhibition

>  <number>
1.29

$$$$
>  <compound.structure.string>
Nc1c2ccccc2nc2cc(Cl)ccc12

>  <measure>
inhibition

>  <number>
1.91

$$$$
>  <compound.structure.string>
CCCC(=O)Nc1ccc(Nc2nc(C)cc(N3CCCC3)n2)cc1

>  <measure>
inhibition

>  <number>
4.49

$$$$
>  <compound.structure.string>
O=C(Nc1cccc(-c2nn3ccccc3c2-c2ccnc(Nc3cccc(F)c3)n2)c1)C1CCCCC1

>  <measure>
inhibition

>  <number>
2.83

$$$$
>  <compound.structure.string>
O=C(Nc1cccc(CN2CCCN(Cc3cccc(Cl)c3)CC2)c1)c1ccc(Cl)c(Cl)c1

>  <measure>
inhibition

>  <number>
1.9

$$$$
>  <compound.structure.string>
NC(=O)c1cccc(C(=O)Nc2cccc(-c3ccc(-c4nc5ccccc5[nH]4)s3)c2)c1

>  <measure>
inhibition

>  <number>
1.48

$$$$
>  <compound.structure.string>
Cc1cc(Nc2ccc(Cl)c(Cl)c2)n2nc(C)nc2n1

>  <measure>
inhibition

>  <number>
-1.26

$$$$
>  <compound.structure.string>
COc1ccc2ncc(F)c(CCN3CC[C@@H](CNCc4cc5c(cn4)OCS5)C3)c2n1

>  <measure>
inhibition

>  <number>
1.69

$$$$
>  <compound.structure.string>
CCSc1ccccc1CON1C(=N)N=C(N)NC1(C)C

>  <measure>
inhibition

>  <number>
19.1

$$$$
>  <compound.structure.string>
N#Cc1ccc(N2CCN(Cc3ccc(-c4ccc(-c5nc6cc(F)ccc6[nH]5)s4)cc3)CC2)nc1

>  <measure>
inhibition

>  <number>
5.07

$$$$
>  <compound.structure.string>
O=C(C=Cc1ccc(Cl)c(Cl)c1)NCCCCCN1CCC(CCNC(=O)c2cccc3ccccc23)CC1

>  <measure>
inhibition

>  <number>
2.98

$$$$
>  <compound.structure.string>
COc1ccc2nccc([C@@H](O)CN3CCC(NCc4ccc5c(n4)NCCC5)CC3)c2c1

>  <measure>
inhibition

>  <number>
6.43

$$$$
>  <compound.structure.string>
NCCNC(=O)c1ccc(-c2cnc3[nH]cc(-c4ccc(C(N)=O)cc4)c3c2)cc1

>  <measure>
inhibition

>  <number>
2.58

$$$$
>  <compound.structure.string>
O=C(Nc1ccc2c(c1)CCCN2S(=O)(=O)c1cccs1)c1cc([N+](=O)[O-])ccc1Cl

>  <measure>
inhibition

>  <number>
8.25

$$$$
>  <compound.structure.string>
CC(C)n1c(CC2CCN(CC3CCN(C(=O)/C=C/c4ccc(Cl)c(Cl)c4)CC3)CC2)nc2ccccc21

>  <measure>
inhibition

>  <number>
-2.38

$$$$
>  <compound.structure.string>
N=C(N)c1ccc(NC(=O)Cc2nc3cc(C(=N)N)ccc3[nH]2)cc1

>  <measure>
inhibition

>  <number>
-0.09

$$$$
>  <compound.structure.string>
COc1cc(NC(=O)/C=C/c2cc(F)cc(F)c2F)cc(OCCN2CCC(O)(c3ccccc3)CC2)c1

>  <measure>
inhibition

>  <number>
1.97

$$$$

---

- subject.of.test: Glucose transporter (Leishmania mexicana)
- assay.procedure: ST_JUDE_LEISH: Cytotoxicity at 2uM final concentration against transgenic Leishmania Mexicana promastigotes LmGT2 that are glucose transport deficient and complemented with the L. Mexicana glucose transporter 2. Activity is measured by DNA content using SYBR green in vitro
- Format: functional
Parameter inhibition: see the listing below.

>  <molecule>
Cn1cncc1C(=O)Nc1cccc(-c2ccc(-c3nc4ccccc4[nH]3)cc2)c1

>  <readout.units>
%

>  <inhibition>
-0.9

$$$$
>  <molecule>
Cc1cc(Nc2ccc(OCc3ccccc3Cl)cc2)c2cc(Cl)ccc2n1

>  <readout.units>
%

>  <inhibition>
7.55

$$$$
>  <molecule>
COc1ccc2cc(-c3nc(-c4c(Cl)cccc4Cl)[nH]c3-c3ccnc(NCCC4CCCN4C)c3)ccc2c1 (centres undefined)

>  <readout.units>
%

>  <inhibition>
8.98

$$$$
>  <molecule>
COc1cc(C)ccc1S(=O)(=O)N1CCCCC(c2ccc(C(F)(F)F)cc2)=N1

>  <readout.units>
%

>  <inhibition>
10.3

$$$$
>  <molecule>
CC(CNC1CCN(CCn2c(=O)ccc3ccc(F)cc32)CC1)c1ccccc1 (centres undefined)

>  <readout.units>
%

>  <inhibition>
-0.24

$$$$
>  <molecule>
O=C(NCC1COc2ccccc2O1)c1cnc2c(c1)nc(-c1c[nH]c(-c3ccccc3)n1)n2CCSCc1c(F)cccc1Cl (centres undefined)

>  <readout.units>
%

>  <inhibition>
3.91

$$$$
>  <molecule>
COc1ccc(-c2nc(NC(=O)Cc3ccc(OC)c(OC)c3)sc2C)cc1

>  <readout.units>
%

>  <inhibition>
1.83

$$$$
>  <molecule>
Clc1ccc2c(NCCCCCCCCNc3ccnc4cc(Cl)ccc34)ccnc2c1

>  <readout.units>
%

>  <inhibition>
1.88

$$$$
>  <molecule>
CCOC(=O)c1ccc(NC(=O)Nc2cccc(-c3cccc(-c4nc5cc(F)ccc5[nH]4)c3)c2)cc1

>  <readout.units>
%

>  <inhibition>
3.67

$$$$

---

- subject.of.test: Glucose transporter (Leishmania mexicana) (UniProt O61059)
- assay.procedure: ST_JUDE_LEISH: Cytotoxicity at 2uM final concentration against transgenic Leishmania Mexicana promastigotes LmGT2 that are glucose transport deficient and complemented with the L. Mexicana glucose transporter 2. Activity is measured by DNA content using SYBR green in vitro
- Assay type: functional

>  <compound>
O=C(Nc1ccc(-c2cccc(-c3nc4ccccc4[nH]3)c2)cc1)Nc1ccsc1

>  <subject.of.test>
Glucose transporter (Leishmania mexicana) (UniProt O61059)

>  <inhibition, %>
-0.62

$$$$
>  <compound>
CN1CCc2ccc(NC(=O)Nc3ccc(-c4ccccc4)cc3)cc2C1

>  <subject.of.test>
Glucose transporter (Leishmania mexicana) (UniProt O61059)

>  <inhibition, %>
0.87

$$$$
>  <compound>
COc1cc2c(C3CCN(CC4CCC(NC(=O)/C=C/c5ccc(Cl)c(Cl)c5)CC4)CC3)c[nH]c2cn1 (centres undefined)

>  <subject.of.test>
Glucose transporter (Leishmania mexicana) (UniProt O61059)

>  <inhibition, %>
7.96

$$$$
>  <compound>
COc1ccc2[nH]c(C)cc(=NN=Cc3cc(OC)c(OC)cc3OC)c2c1

>  <subject.of.test>
Glucose transporter (Leishmania mexicana) (UniProt O61059)

>  <inhibition, %>
6.18

$$$$
>  <compound>
CN(C(=O)c1nn(-c2ccccn2)c2nccc(-c3cccs3)c12)C1CCCCC1

>  <subject.of.test>
Glucose transporter (Leishmania mexicana) (UniProt O61059)

>  <inhibition, %>
3.33

$$$$
>  <compound>
C=C[C@H]1CN(CCCCCCC)CC[C@H]1C[C@@H](Cc1ccnc2ccc(OC)cc12)OC(=O)[C@](OC)(c1ccccc1)C(F)(F)F

>  <subject.of.test>
Glucose transporter (Leishmania mexicana) (UniProt O61059)

>  <inhibition, %>
-3.72

$$$$
>  <compound>
O=C(N[C@@H](Cc1ccccc1)C(=O)NCCN1CCOCC1)c1ccc(O)c(-c2ccc(Cl)c(Cl)c2)c1

>  <subject.of.test>
Glucose transporter (Leishmania mexicana) (UniProt O61059)

>  <inhibition, %>
4.35

$$$$
>  <compound>
CC(C)c1ccc(NC(=O)NCCCC2CCCN(CCCCCNC(=O)/C=C/c3ccc(Cl)c(Cl)c3)C2)cc1 (centres undefined)

>  <subject.of.test>
Glucose transporter (Leishmania mexicana) (UniProt O61059)

>  <inhibition, %>
5.08

$$$$
>  <compound>
CCOC(=O)c1ccc2[nH]c(-c3ccc(C(=O)NCc4ccc(C(C)(C)C)cc4)cc3)nc2c1

>  <subject.of.test>
Glucose transporter (Leishmania mexicana) (UniProt O61059)

>  <inhibition, %>
1.02

$$$$

Values were extracted from ChEMBL document CHEMBL3433997.
